Origin of measurements: patent US9765109B2

Please go through the items and note down their Tm, dsDNA.
# System: dA/dT duplex part of d(A10C4T10) hairpin
# assay.text: Thermal denaturation (Tm) of triplexes with dsDNA
# Type: binding
# assay.context: triplex; 150 mM NaCl, 10 mM sodium phosphate buffer (first number)

Exercise: Read off the recorded Tm, dsDNA for dT-r(Un^fUn^fUn^fUn^fUn^fUn^fUn^fUn^f Un^f) (TUUUUUUUUU; 2′-ribo-fluoro phosphoramidate; 5′ dT; contains 2 prime-deoxy and 2 prime-ribo- fluoronucleotides; test compounds) [SEQ ID NO:7, 2′-ribo-fluoro N3′→P5′ phosphoramidate oligonucleotide]
Key: 42.2 °C

Exercise: Read off the recorded Tm, dsDNA for a(Up^fUp^fUp^fUp^fUp^fUp^fUp^fUp^fUp^fT) [SEQ ID NO:5]
Key: < 14 °C

Exercise: Read off the recorded Tm, dsDNA for dT-a(Un^fUn^fUn^fUn^fUn^fUn^fUn^fUn^f Un^f) (TUUUUUUUUU; 2′-arabino-fluoro phosphoramidate; 5′ dT; contains 2 prime-deoxy and 2 prime-arabino- fluoronucleosides; test compounds) [SEQ ID NO:8, 2′-arabino-fluoro N3′→P5′ phosphoramidate decanucleotide]
Key: 22.0 °C

Exercise: Read off the recorded Tm, dsDNA for d(UnUnUnUnUnUnUnUnUnT) (UUUUUUUUUT; N3′→P5′ phosphoramidate; contains 2 prime-deoxy nucleosides; test compounds) [SEQ ID NO:6, 2′-deoxy N3′→P5′ phosphoramidate oligonucleotide]
Key: <15; n.d ° C.

----------
# System: dA/dT duplex part of d(A10C4T10) hairpin
# assay.text: Thermal denaturation (Tm) of triplexes with dsDNA
# Format: binding
# assay.context: triplex; same buffer with additional 10 mM magnesium chloride (second number)
# Description: ^31P NMR spectra were obtained on a Varian 400 MHz spectrometer. ^31P NMR spectra were referenced against 85% aqueous phosphoric acid. Anion exchange HPLC was performed using a Dionex DX 500 Chromatography System, with a Pharmacia Biotech Mono Q HR 5/5 or 10/16 ion exchange columns. Ion exchange HPLC was performed on the Dionex DX 500 system, using a Pharmacia Mono Q HR 5/5 column. Buffer A and B were: 10 mM NaOH, pH12 and 10 mM NaOH, 1.5 M NaCl, pH12, respectively. […]
Please go through the items and note down their Tm, dsDNA.
Field: numeric (°C). Do not append units.

Exercise: Read off the recorded Tm, dsDNA for dT-r(Un^fUn^fUn^fUn^fUn^fUn^fUn^fUn^f Un^f) (TUUUUUUUUU; 2′-ribo-fluoro phosphoramidate; 5′ dT; contains 2 prime-deoxy and 2 prime-ribo- fluoronucleotides; test compounds) [SEQ ID NO:7, 2′-ribo-fluoro N3′→P5′ phosphoramidate oligonucleotide]
Key: 54.1

Exercise: Read off the recorded Tm, dsDNA for a(Up^fUp^fUp^fUp^fUp^fUp^fUp^fUp^fUp^fT) [SEQ ID NO:5]
Key: 20.9

Exercise: Read off the recorded Tm, dsDNA for dT-a(Un^fUn^fUn^fUn^fUn^fUn^fUn^fUn^f Un^f) (TUUUUUUUUU; 2′-arabino-fluoro phosphoramidate; 5′ dT; contains 2 prime-deoxy and 2 prime-arabino- fluoronucleosides; test compounds) [SEQ ID NO:8, 2′-arabino-fluoro N3′→P5′ phosphoramidate decanucleotide]
Key: 31.2
